Quick list: MRC5 ND50 per entry.
Target: T1, human IL-1α (human, UniProt P01583 113-271)
T1 sequence (looked up): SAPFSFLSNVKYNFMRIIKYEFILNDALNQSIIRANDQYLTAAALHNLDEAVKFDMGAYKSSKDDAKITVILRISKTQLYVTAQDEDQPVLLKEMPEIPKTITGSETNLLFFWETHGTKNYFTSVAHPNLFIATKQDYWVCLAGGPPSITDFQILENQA
Test: cell-based or functional assay
// unit must come after the numeric part

# example entries with known answers
| binder | data_value |
| --- | --- |
| ABT1-6 (other) VH: EVQLLESGGGLVQPGGSLRLSCAASGFTFGAYDMQWVRQAPGKGLEWVSSINKSGALTSYADSVKGRFTISRDNSKNTLYLQMNSLRAEDTAVYYCAKGWASFDYWGQGTLVTVSS | 15 µM |
| ABT1-6-3 (other) VH: EVQLLESGGGLVQPGGSLRLSCAASGFTFGAYDMQWVRQAPGKGLEWVSSIYKSGALTSYADSVKGRFTISRDNSKNTLYLQMNSLRAEDTAVYYCAKGWASFDYWGQGTLVTVSS | 0.08 µM |
| ABT1-6-15 (other) VH: EVQLLESGGGLVQPGGSLRLSCAASGFTFVRYDMAWVRQAPGKGLEWVSSINKSGALTSYADSVKGRFTISRDNSKNTLYLQMNSLRAEDTAVYYCAKGWASFDYWGQGTLVTVSS | 2 µM |

Below: the item to evaluate.
Q: Endpoint output: MRC5 ND50 of ABT1-6-23 (other, dAb, VH, to IL-1α; also called dAb ABT1-6-23) VH: EVQLLESGGGLVQPGGSLRLSCAASGFTFVRYDMAWVRQAPGKGLEWVSSIYKSGALTSYADSVKGRFTISRDNSKNTLYLQMNSLRAEDTAVYYCAKGWASFDYWGQGTLVTVSS . Value?
A: 0.03 µM
